# System: VCAP cells
# experiment: Inhibition of R1881 stimulated cell growth in VCAP cells (CellTiter-Glo)
# Assay type: cell-based
# run-parameters: Homo sapiens, 144 h, 10% CSS, 6 days
// values below are reported GI50

Some solved entries appear below for comparison.
[
  {
    "compound": "CC1(C)C(NC(=O)c2ccc(N3CCC(CN4CCN(c5ccc(C(=O)N[C@H]6CCC(=O)NC6=O)nc5)CC4)CC3)cc2)C(C)(C)C1Oc1ccc(C#N)c2[nH]c(=O)ccc12 (some centres unmarked) [Compound 43]",
    "assay-target": "VCAP cells",
    "GI50": "50 to 500 nM"
  },
  {
    "compound": "Cn1ccc(=O)c2c(O[C@H]3C(C)(C)[C@H](NC(=O)c4ccc(N5CCC(CN6CCN(c7ccc8c(c7)CN([C@H]7CCC(=O)NC7=O)C8=O)CC6)CC5)cc4)C3(C)C)ccc(C#N)c21 [Compound 39]",
    "assay-target": "VCAP cells",
    "GI50": "≤ 50 nM"
  },
  {
    "compound": "CC1(C)[C@H](NC(=O)c2ccc(N3CCC(CN4CCN(c5ccc6c(c5)CN([C@H]5CCC(=O)NC5=O)C6=O)CC4)CC3)c(F)c2)C(C)(C)[C@H]1Oc1ccc(C#N)c2[nH]c(=O)ccc12 [Compound 16]",
    "assay-target": "VCAP cells",
    "GI50": "≤ 50 nM"
  }
]

Give me measured GI50, please, for this compound: CC1(C)C(NC(=O)c2ccc(N3CCC(CN4CCN(c5ccc6c(c5)C(=O)N(C5CCC(=O)NC5=O)C6=O)CC4)CC3)cc2)C(C)(C)C1Oc1ccc(C#N)c2[nH]c(=O)ccc12 (centres unmarked) [Compound 20]
50 to 500 nM

Give me measured GI50, please, for this compound: CC1(C)C(NC(=O)c2ccc(N3CCC(CN4CCN(c5ccc6c(=O)n(C7CCC(=O)NC7=O)ncc6c5)CC4)CC3)cc2)C(C)(C)C1Oc1ccc(C#N)c2[nH]c(=O)ccc12 (centres unmarked) [Compound 49]
50 to 500 nM

----------
# System: VCAP cells
# experiment: Inhibition of R1881 stimulated cell growth in VCAP cells (CellTiter-Glo)
# Assay type: cell-based
# run-parameters: Homo sapiens, 144 h, 10% CSS, 6 days
// values below are reported GI50

Some solved entries appear below for comparison.
[
  {
    "molecule": "CC1(C)C(NC(=O)c2ccc(N3CCC(CN4CCN(c5ccc6c(c5)CN([C@H]5CCC(=O)NC5=O)C6=O)CC4)CC3)cc2)C(C)(C)C1Oc1ccc(C#N)c2[nH]ccc(=O)c12 (stereo partly drawn) [Compound 30]",
    "GI50": "≤ 0.05 µM"
  },
  {
    "molecule": "Cn1c(=O)ccc2c(OC3C(C)(C)C(NC(=O)c4ccc(N5CCC(CN6CCN(c7ccc8c(c7)CN([C@H]7CCC(=O)NC7=O)C8=O)CC6)CC5)cc4)C3(C)C)ccc(C#N)c21 (stereo partly drawn) [Compound 34]",
    "GI50": "≤ 0.05 µM"
  }
]

Read the next record carefully.
Give me measured GI50, please, for this molecule: CC1(C)C(NC(=O)c2ccc(N3CCC(CN4CCN(c5ccc6c(c5)CN([C@H]5CCC(=O)NC5=O)C6=O)CC4)CC3)cc2)C(C)(C)C1Oc1ccc(C#N)c2[nH]c(=O)ccc12 (stereo partly drawn) [Compound 18]
≤ 0.05 µM

----------
// values below are reported GI50
# Test system: LNCAP cells
# experiment: Inhibition of R1881 stimulated cell growth in LNCAP cells (CellTiter-Glo)
# Assay type: cell-based
# run-parameters: Homo sapiens, 144 h, 10% CSS, 6 days

Some solved entries appear below for comparison.
[
  {
    "molecule": "CC1(C)C(NC(=O)c2ccc(N3CCC(CN4CCN(c5ccc6c(c5)C(=O)N(C5CCC(=O)NC5=O)C6=O)CC4)CC3)cc2)C(C)(C)C1Oc1ccc(C#N)c2[nH]c(=O)ccc12 (centres unmarked)",
    "GI50": "> 500 nM"
  },
  {
    "molecule": "CC1(C)[C@H](NC(=O)c2ccc(N3CCC(CN4CCN(c5ccc6c(c5)CN([C@H]5CCC(=O)NC5=O)C6=O)CC4)CC3)c(F)c2)C(C)(C)[C@H]1Oc1ccc(C#N)c2[nH]c(=O)ccc12",
    "GI50": "≤ 50 nM"
  },
  {
    "molecule": "CC1(C)C(NC(=O)c2ccc(N3CCC(CN4CCN(c5ccc(C(=O)N[C@H]6CCC(=O)NC6=O)nc5)CC4)CC3)cc2)C(C)(C)C1Oc1ccc(C#N)c2[nH]c(=O)ccc12 (some centres unmarked)",
    "GI50": "> 500 nM"
  },
  {
    "molecule": "Cn1c(=O)ccc2c(OC3C(C)(C)C(NC(=O)c4ccc(N5CCC(CN6CCN(c7ccc8c(c7)CN([C@H]7CCC(=O)NC7=O)C8=O)CC6)CC5)cc4)C3(C)C)ccc(C#N)c21 (some centres unmarked)",
    "GI50": "≤ 50 nM"
  }
]

Read the next record carefully.
Give me measured GI50, please, for this molecule: CC1(C)C(NC(=O)c2ccc(N3CCC(CN4CCN(c5ccc6c(c5)CN([C@H]5CCC(=O)NC5=O)C6=O)CC4)CC3)cc2)C(C)(C)C1Oc1ccc(C#N)c2[nH]ccc(=O)c12 (some centres unmarked)
≤ 50 nM

----------
// values below are reported GI50
# Tested on: LNCAP cells
# experiment: Inhibition of R1881 stimulated cell growth in LNCAP cells (CellTiter-Glo)
# Assay type: cell-based
# run-parameters: Homo sapiens, 144 h, 10% CSS, 6 days

Some solved entries appear below for comparison.
[
  {
    "molecule": "CC1(C)C(NC(=O)c2ccc(N3CCC(CN4CCN(c5ccc6c(=O)n(C7CCC(=O)NC7=O)ncc6c5)CC4)CC3)cc2)C(C)(C)C1Oc1ccc(C#N)c2[nH]c(=O)ccc12 (stereo not drawn) [Compound 49]",
    "experimental-value": "> 500 nM"
  },
  {
    "molecule": "Cn1ccc(=O)c2c(O[C@H]3C(C)(C)[C@H](NC(=O)c4ccc(N5CCC(CN6CCN(c7ccc8c(c7)CN([C@H]7CCC(=O)NC7=O)C8=O)CC6)CC5)cc4)C3(C)C)ccc(C#N)c21 [Compound 39]",
    "experimental-value": "≤ 50 nM"
  }
]

Read the next record carefully.
Give me measured GI50, please, for this molecule: CC1(C)C(NC(=O)c2ccc(N3CCC(CN4CCN(c5ccc6c(c5)CN([C@H]5CCC(=O)NC5=O)C6=O)CC4)CC3)cc2)C(C)(C)C1Oc1ccc(C#N)c2[nH]c(=O)ccc12 (stereo partly drawn) [Compound 18]
≤ 50 nM
